Conditions: in benzene, 288 K
Metric: solubility (mole fraction)
I'd appreciate a reply containing only the number, no unit.

Enquiry: Which solubility (mole fraction) is listed for `c1cc2c3c(cccc3c1)CC2` ?
Return: 0.131

---

Settings: in acetone, 313 K
Metric: solubility (mole fraction)
// response body must contain only the number

Enquiry: Find the recorded solubility (mole fraction) belonging to `c1cc2c3c(cccc3c1)CC2` and report it.
Return: 0.113

---

Settings: in isobutanol, 288.1 K
Metric: solubility (mole fraction)
Field format: numeric only.

Enquiry: // query solubility (mole fraction) value for entry `c1cc2c3c(cccc3c1)CC2`
Return: 0.0128

---

Settings: in isobutanol, 283 K
Metric: solubility (mole fraction)
Lab note: record just the number, no unit beside it.

Enquiry: Data request, read-out solubility (mole fraction), for `c1cc2c3c(cccc3c1)CC2`
Return: 0.00926
